- Experimental Protocol: protein stability index of a GFP-peptide fusion (yeast GPS) (PSI 1-4); higher = more stable; sorted into four equal gates, so the index is relative within each strain
- Condition Description: san1∆
Provide the recorded protein stability index for the entries that follow.
Numbers only.

Sequence: ESAPITAEDSWAVISAF [RPB2]
protein stability index: 2.91
--
Sequence: DELETKAEKKVELHGKR [PRP8]
protein stability index: 3.4
--
Sequence: AFPKDDRSKPVALTSFL [RPL3]
protein stability index: 3.33

Please give protein stability index, item by item, for the list that follows.
1. LSVMCGCGTVKRFNIGA [RPR2]
2. EFTENELNVDSMDVDDK [ITC1]
3. LELTTGATYRGKLVESE [SMD3]
4. DEDKFKKLKPIVAKYDP [PRP28]
5. DTNAPVAATITSSQKEP [SRB8]

Result:
3.14
3.31
2.94
2.9
3.04

* * *

Provide the recorded protein stability index for the entries that follow.
- Experimental Protocol: protein stability index of a GFP-peptide fusion (yeast GPS) (PSI 1-4); higher = more stable; sorted into four equal gates, so the index is relative within each strain
- Condition Description: pdr5∆
Numbers only.

Sequence: DLMDEELRKHAQKRVSN [SKI6]
protein stability index: 3.45
//
Sequence: GSKKGQEGKISSVYRLK [RPL26A]
protein stability index: 2.94

Please give protein stability index, item by item, for the list that follows.
1. GNVIQFIYGEDGMDAAH [RPO21]
2. PMEVMGLMLGEFVDDYT [RPN11]

Result:
1. 2.58
2. 3.28

* * *

- Experimental Protocol: protein stability index of a GFP-peptide fusion (yeast GPS) (PSI 1-4); higher = more stable; sorted into four equal gates, so the index is relative within each strain
- Condition Description: ubr1∆
Provide the recorded protein stability index for the entries that follow.

Examples from the recorded data:
Sequence: YGEYPPTKLLVSEVAKI [PRE8]
Result: 2.93

Sequence: VSFYFEDGTIESYNQND [SIN4]
Result: 2.92

Sequence: PSASLKLHHDLKLCLGD [YMR129W/POM152]
Result: 3.03

Query: Any idea what protein stability index was measured for QNVISLGSLTVEDYLSS [RPC82] ?
Result: 3

* * *

- Experimental Protocol: protein stability index of a GFP-peptide fusion (yeast GPS) (PSI 1-4); higher = more stable; sorted into four equal gates, so the index is relative within each strain
- Condition Description: pdr5∆
Think of 3 as a floor: if protein stability index stands on it or above, it is True; beneath it, False.

Sequence: RVMKSLSINEKDFVTMA [YCG1]
Assigned Class: False
--
Sequence: KKWNDLKNKNFKCQEKD [SIR2]
Assigned Class: True
--
Sequence: GKRHIFDVNTLCLMTWK [CDC53]
Assigned Class: False
--
Sequence: PEKTSTELVDGRENFVY [SIR3]
Assigned Class: True
--
Sequence: KNVLANSIWGSSLRKNA [ITC1]
Assigned Class: False
--
Sequence: PAITIEKLKQFSWISVV [SIR3]
Assigned Class: False
--
Sequence: NQSNLNGGNNTQQPGTN [SNF2]
Assigned Class: True
--
Sequence: GRHVATCSSDQHIKVFK [YGL100W/SEH1]
Assigned Class: False
--
Sequence: ENAYKSENAPSASSKEF [YAR002W/NUP60]
Assigned Class: False
--
Sequence: QRKNIQSLELMIYDDAH [BRR2]
Assigned Class: False

Query: # bool: protein stability index of YGQRAVLKFAAHTGATP [RPS0B] >= 3
Result: False

Query: Also KYFTELSHYIRQCFQDN [MED1] , if possible.
Result: False

Query: Also DMLTWVDSNLPDDEKFT [RPC40] , if possible.
Result: True

Query: Also KQEIMMSDLFTFDWFIK [ISW2] , if possible.
Result: False

Query: Also VNNPQEETSHLLTVTPG [RPN10] , if possible.
Result: False

Query: Also ERVRLRPEQLSNIIHDE [SNF6] , if possible.
Result: False

Query: Also FVSESPSFVKSGKLRDY [ISW2] , if possible.
Result: False

Query: Also YTFKTSMRVKPSASLKL [YMR129W/POM152] , if possible.
Result: False

Query: Also FDVNNIDMHLIYGVEWL [YDL116W/NUP84] , if possible.
Result: False

Query: Also ANGIINVKEITEKLKIS [SMC3] , if possible.
Result: False

Query: Also LLTVEEGQLKPGDGSSY [RPC25] , if possible.
Result: True

Query: Also VLNCLRTMYFILDGQDV [YJR042W/NUP85] , if possible.
Result: False

Ref: the supplement of paper PMC9732359
